Origin of the recorded values: patent US20180258158A1

Biological target: T1, human serum albumin (HSA), full length (human, UniProt P02768 25-609)
T1 construct: mature; Immobilized on CM5 chip (SPR) or coated on plates (ELISA)
T1 sequence (P02768 25-609): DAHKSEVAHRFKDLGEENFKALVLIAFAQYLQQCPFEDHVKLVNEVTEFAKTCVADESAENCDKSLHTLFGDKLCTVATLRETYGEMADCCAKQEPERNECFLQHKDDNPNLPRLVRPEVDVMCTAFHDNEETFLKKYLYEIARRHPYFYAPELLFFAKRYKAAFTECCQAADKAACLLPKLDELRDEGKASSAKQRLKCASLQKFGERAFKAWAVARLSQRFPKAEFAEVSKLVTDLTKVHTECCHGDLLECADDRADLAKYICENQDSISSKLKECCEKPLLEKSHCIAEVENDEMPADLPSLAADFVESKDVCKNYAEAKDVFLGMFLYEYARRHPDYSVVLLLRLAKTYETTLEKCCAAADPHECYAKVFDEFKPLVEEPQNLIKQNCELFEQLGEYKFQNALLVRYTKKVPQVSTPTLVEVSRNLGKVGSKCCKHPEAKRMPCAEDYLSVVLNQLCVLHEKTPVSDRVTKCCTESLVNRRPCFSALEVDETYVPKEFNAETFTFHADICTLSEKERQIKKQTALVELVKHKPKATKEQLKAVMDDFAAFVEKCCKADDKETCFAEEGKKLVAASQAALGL
Test: SPR off-rate ratio to parent ADX_7016_A01, HSA, 25 C
Value kind: HSA kd/Parent kd

(P) ADX_6727_G06 (Y35A/K85S) (designed binder, Full His6-tagged entry) MGVSDVPRDLEVVAATPTSLLISWDAPAVTVRYYRITYGREVQKASDLGPLYIYQEFTVPGSKSTATISGLKPGVDYTITVYAVTGSGESPASSSPISINYRTEIDKPSQHHHHHH
(Q) ADX_6727_D03 (L41S) (designed binder, Full His6-tagged entry) MGVSDVPRDLEVVAATPTSLLISWDAPAVTVRYYRITYGREVQKYSDLGPSYIYQEFTVPGSKSTATISGLKPGVDYTITVYAVTGSGESPASSKPISINYRTEIDKPSQHHHHHH
I'm curious whether P or Q has the smaller HSA kd/Parent kd number. Which is it? Give the chosen item's label as your response.
P
